study.system: High affinity nerve growth factor receptor (Homo sapiens, UniProt P04629)
Sequence (P04629 whole entry): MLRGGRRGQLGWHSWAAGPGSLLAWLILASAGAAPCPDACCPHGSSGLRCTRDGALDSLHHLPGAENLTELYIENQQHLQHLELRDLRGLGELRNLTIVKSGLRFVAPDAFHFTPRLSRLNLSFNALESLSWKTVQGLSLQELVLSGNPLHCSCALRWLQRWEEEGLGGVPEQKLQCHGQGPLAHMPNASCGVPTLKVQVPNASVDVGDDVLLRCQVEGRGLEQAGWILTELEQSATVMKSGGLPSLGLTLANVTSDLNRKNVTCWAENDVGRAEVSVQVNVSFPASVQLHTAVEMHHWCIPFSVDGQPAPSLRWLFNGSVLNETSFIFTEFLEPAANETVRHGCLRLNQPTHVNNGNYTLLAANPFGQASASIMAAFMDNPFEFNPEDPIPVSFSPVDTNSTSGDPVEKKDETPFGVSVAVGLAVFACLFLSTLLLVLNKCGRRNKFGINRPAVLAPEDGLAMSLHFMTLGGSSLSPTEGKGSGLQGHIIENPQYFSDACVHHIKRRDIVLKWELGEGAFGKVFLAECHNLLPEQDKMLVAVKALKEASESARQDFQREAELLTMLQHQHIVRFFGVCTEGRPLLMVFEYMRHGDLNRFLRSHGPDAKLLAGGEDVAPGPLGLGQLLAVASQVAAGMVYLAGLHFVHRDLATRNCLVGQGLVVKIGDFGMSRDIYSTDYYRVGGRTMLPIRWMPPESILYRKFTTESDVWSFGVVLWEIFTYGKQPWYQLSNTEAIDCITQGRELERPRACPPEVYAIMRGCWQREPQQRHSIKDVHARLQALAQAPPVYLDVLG
readout.kind: IC50
Give the number first and the unit second.

Sample COc1cc(NC(=O)Nc2cnc(Nc3ccc(N4CCOCC4)cc3)nc2Oc2ccc(C)cc2OC)cc(OC)c1 , system: High affinity nerve growth factor receptor (Homo sapiens, UniProt P04629). Its IC50 is 8.54 µM

* * *

test.description: Cytotoxicity against mouse RAW264.7 cells after 4 hrs by MTT assay
Assay type: cell-based
test.settings: mouse, RAW264.7 cells
readout.kind: IC80 at 4 h

Sure, the documented IC80 at 4 h for COc1cc(C)ccc1Oc1nc(Nc2ccc(N3CCOCC3)cc2)ncc1/N=C/c1ccc(Cl)cc1 is > 6 µM

---
Sure, the documented IC80 at 4 h for COc1cc(C)ccc1Oc1nc(Nc2ccc(N3CCOCC3)cc2)ncc1/N=C/c1cccc(OC(C)C)c1 is > 6 µM

Sure, the documented IC80 at 4 h for COc1cc(C)ccc1Oc1nc(Nc2ccc(N3CCOCC3)cc2)ncc1/N=C/c1ccccc1Cl is > 1 µM

Sure, the documented IC80 at 4 h for COc1cc(C)ccc1Oc1nc(Nc2ccc(N3CCOCC3)cc2)ncc1/N=C/c1cccc(Cl)c1 is > 1 µM

Sure, the documented IC80 at 4 h for COc1ccc(OC)c(/C=N/c2cnc(Nc3ccc(N4CCOCC4)cc3)nc2Oc2ccc(C)cc2OC)c1 is > 1 µM

Sure, the documented IC80 at 4 h for COc1cc(C)ccc1Oc1nc(Nc2ccc(N3CCOCC3)cc2)ncc1/N=C/c1cccc(OC(F)(F)F)c1 is < 5 µM

* * *

System: RAW264.7
test.description: Cytotoxicity against mouse RAW264.7 cells after 4 hrs by MTT assay
Type: cell-based
test.settings: Mus musculus, RAW264.7, 4 h
readout.kind: IC50

Sample COc1cc(NC(=O)Nc2cnc(Nc3ccc(N4CCOCC4)cc3)nc2Oc2ccc(C)cc2OC)cc(OC)c1 , system: RAW264.7. Its IC50 is > 80 µM

* * *

study.system: Tyrosine-protein kinase Lck (Homo sapiens, UniProt P06239)
Sequence (P06239 2-509 limits assumed): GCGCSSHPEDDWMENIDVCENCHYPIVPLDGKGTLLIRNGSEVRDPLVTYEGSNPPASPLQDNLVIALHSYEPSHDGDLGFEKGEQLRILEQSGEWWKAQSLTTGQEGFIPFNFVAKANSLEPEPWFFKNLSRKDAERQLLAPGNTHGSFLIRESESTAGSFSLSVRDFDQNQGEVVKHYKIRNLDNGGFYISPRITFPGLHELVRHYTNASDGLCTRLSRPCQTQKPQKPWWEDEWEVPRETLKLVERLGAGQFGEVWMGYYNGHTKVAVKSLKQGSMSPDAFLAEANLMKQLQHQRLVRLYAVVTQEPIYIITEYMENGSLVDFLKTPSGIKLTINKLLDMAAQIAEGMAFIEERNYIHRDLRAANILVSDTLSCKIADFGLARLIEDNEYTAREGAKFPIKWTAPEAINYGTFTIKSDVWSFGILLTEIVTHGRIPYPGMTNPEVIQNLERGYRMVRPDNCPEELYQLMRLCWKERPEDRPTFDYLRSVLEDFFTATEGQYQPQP
test.description: Inhibition of LCK (unknown origin) assessed as remaining activity at 3 x 10^-5 M after 120 mins in presence of 33P-ATP (reference value: […]% to […]%)
test.settings: at 30 µM
readout.kind: Activity

Sure, the documented Activity for COc1cc(C)ccc1Oc1nc(Nc2ccc(N3CCOCC3)cc2)ncc1/N=C/c1cccc(OC(C)C)c1 is 12.4 to 16.2%

Sure, the documented Activity for COc1cc(C)ccc1Oc1nc(Nc2ccc(N3CCOCC3)cc2)ncc1/N=C/c1cc(Cl)cc(Cl)c1 is 38.9 to 40.7%

Sure, the documented Activity for COc1cc(C)ccc1Oc1nc(Nc2ccc(N3CCOCC3)cc2)ncc1NCc1cccc(OC(F)(F)F)c1 is 44.9 to 45.8%

Then there is this compound:
Sure, the documented Activity for COc1cc(NC(=O)Nc2cnc(Nc3ccc(N4CCOCC4)cc3)nc2Oc2ccc(F)cc2)cc(OC)c1 is 52.5 to 61.6%

* * *

study.system: Tyrosine-protein kinase Lck (Homo sapiens)
test.description: Inhibition of LCK (unknown origin) assessed as remaining activity at 1 x 10^-5 M after 120 mins in presence of 33P-ATP (reference value: […]% to […]%)
test.settings: at 10 µM
readout.kind: Activity

Sample COc1cc(C)ccc1Oc1nc(Nc2ccc(N3CCOCC3)cc2)ncc1/N=C/c1cccc(Cl)c1 , system: Tyrosine-protein kinase Lck (Homo sapiens). Its Activity is 11.3 to 14.9%

Sample COc1ccc(OC)c(/C=N/c2cnc(Nc3ccc(N4CCOCC4)cc3)nc2Oc2ccc(C)cc2OC)c1 , system: Tyrosine-protein kinase Lck (Homo sapiens). Its Activity is 12.5 to 14.4%

Sample COc1cc(Nc2ncc(NC(=O)c3cc(OC)cc(OC)c3)c(Oc3ccc(C)cc3OC)n2)cc(OC)c1 , system: Tyrosine-protein kinase Lck (Homo sapiens). Its Activity is 95.7 to 97.5%

Sample COc1cc(C)ccc1Oc1nc(Nc2ccc(N3CCOCC3)cc2)ncc1/N=C/c1ccc(Cl)cc1 , system: Tyrosine-protein kinase Lck (Homo sapiens). Its Activity is 10.6%

Sample COc1ccc(Oc2nc(Nc3ccc(N4CCOCC4)cc3)ncc2/N=C/c2cc(OC)cc(OC)c2)cc1 , system: Tyrosine-protein kinase Lck (Homo sapiens). Its Activity is 27.4 to 28.3%

Sample COc1cc(C)ccc1Oc1nc(Nc2ccc(N3CCOCC3)cc2)ncc1/N=C/c1ccccc1Cl , system: Tyrosine-protein kinase Lck (Homo sapiens). Its Activity is 11.3 to 11.5%

Sample COc1cc(/C=N/c2cnc(Nc3ccc(N4CCOCC4)cc3)nc2Oc2ccc(C(F)(F)F)cc2)cc(OC)c1 , system: Tyrosine-protein kinase Lck (Homo sapiens). Its Activity is 43.8 to 52.2%

Sample COc1cc(NC(=O)Nc2cnc(Nc3ccc(N4CCOCC4)cc3)nc2Oc2cccc(OC)c2)cc(OC)c1 , system: Tyrosine-protein kinase Lck (Homo sapiens). Its Activity is 42.1 to 49.3%

---
Sample COc1cc(/C=N/c2cnc(Nc3ccc(N4CCOCC4)cc3)nc2Oc2ccc(C)cc2OC)cc(OC)c1 , system: Tyrosine-protein kinase Lck (Homo sapiens). Its Activity is 7.1 to 8.37%

* * *

# Activity listing for each entry below
study.system: Tyrosine-protein kinase Lck (Homo sapiens, UniProt P06239)
test.description: Inhibition of LCK (unknown origin) assessed as remaining activity at 3.33 x 10^-6 M after 120 mins in presence of 33P-ATP (reference value: […]% to […]%)
test.settings: at 3.33 µM

Sure, the documented Activity for COc1cc(C)ccc1Oc1nc(Nc2ccc(N3CCOCC3)cc2)ncc1NC(=O)Nc1cc(C(F)(F)F)cc(C(F)(F)F)c1 is 91 to 91.3%

Sure, the documented Activity for COc1cc(Nc2ncc(NC(=O)Nc3c(Cl)cccc3Cl)c(Oc3ccc(C)cc3OC)n2)cc(OC)c1 is 85.2 to 88.2%

Sure, the documented Activity for COc1cc(C)ccc1Oc1nc(Nc2ccc(N3CCOCC3)cc2)ncc1NCc1ccc(OC(F)(F)F)cc1 is 45 to 47.1%

---
Sure, the documented Activity for COc1cc(C)ccc1Oc1nc(Nc2ccc(N3CCOCC3)cc2)ncc1NC(=O)Nc1cc(Cl)cc(Cl)c1 is 80.2 to 80.7%

Sure, the documented Activity for COc1cc(C)ccc1Oc1nc(Nc2ccc(N3CCOCC3)cc2)ncc1/N=C/c1ccccc1Cl is 13.4 to 15.1%

Sure, the documented Activity for COc1cc(C)ccc1Oc1nc(Nc2ccc(N3CCOCC3)cc2)ncc1/N=C/c1cc(Cl)cc(Cl)c1 is 32.8 to 33.6%

Sure, the documented Activity for COc1ccc(NC(=O)Nc2cnc(Nc3cc(OC)cc(OC)c3)nc2Oc2ccc(C)cc2OC)cc1 is 96.5 to 99.7%

Sure, the documented Activity for COc1cc(NC(=O)Nc2cnc(Nc3ccc(N4CCOCC4)cc3)nc2Oc2cccc(OC)c2)cc(OC)c1 is 57.6 to 66.5%

Sure, the documented Activity for COc1cc(C)ccc1Oc1nc(Nc2ccc(N3CCOCC3)cc2)ncc1NCc1ccc(Cl)cc1 is 11.2 to 11.3%

Sure, the documented Activity for COc1cc(Nc2ncc(NC(=O)c3cc(OC)cc(OC)c3)c(Oc3ccc(C)cc3OC)n2)cc(OC)c1 is 100 to 101%

Sure, the documented Activity for COc1cc(C)ccc1Oc1nc(Nc2ccc(N3CCOCC3)cc2)ncc1NCc1cc(C(F)(F)F)cc(C(F)(F)F)c1 is 66.6 to 71%

* * *

# Activity listing for each entry below
study.system: Tyrosine-protein kinase Lck (Homo sapiens, UniProt P06239)
test.description: Inhibition of LCK (unknown origin) assessed as remaining activity at 1 x 10^-5 M after 120 mins in presence of 33P-ATP (reference value: […]% to […]%)
test.settings: at 10 µM

Sample COc1cc(C)ccc1Oc1nc(Nc2ccc(N3CCOCC3)cc2)ncc1NC(=O)Nc1cc(Cl)cc(Cl)c1 , system: Tyrosine-protein kinase Lck (Homo sapiens, UniProt P06239). Its Activity is 70.1 to 74.8%

Sample COc1ccc(NC(=O)Nc2cnc(Nc3cc(OC)cc(OC)c3)nc2Oc2ccc(C)cc2OC)cc1 , system: Tyrosine-protein kinase Lck (Homo sapiens, UniProt P06239). Its Activity is 92.4 to 97.2%

Sample COc1cc(/C=N/c2cnc(Nc3ccc(N4CCOCC4)cc3)nc2Oc2ccc(F)cc2)cc(OC)c1 , system: Tyrosine-protein kinase Lck (Homo sapiens, UniProt P06239). Its Activity is 39.9 to 41%

Sample COc1cc(C)ccc1Oc1nc(Nc2ccc(N3CCOCC3)cc2)ncc1/N=C/c1cccc(OC(F)(F)F)c1 , system: Tyrosine-protein kinase Lck (Homo sapiens, UniProt P06239). Its Activity is 49 to 54.7%

Sample COc1cc(C)ccc1Oc1nc(Nc2ccc(N3CCOCC3)cc2)ncc1NC(=O)Nc1cc(C(F)(F)F)cc(C(F)(F)F)c1 , system: Tyrosine-protein kinase Lck (Homo sapiens, UniProt P06239). Its Activity is 89.7 to 95.1%

Sample COc1cc(C)ccc1Oc1nc(Nc2ccc(N3CCOCC3)cc2)ncc1/N=C/c1cc(Cl)cc(Cl)c1 , system: Tyrosine-protein kinase Lck (Homo sapiens, UniProt P06239). Its Activity is 37.1%

Sample COc1cc(NC(=O)Nc2cnc(Nc3cc(OC)cc(OC)c3)nc2Oc2ccc(C)cc2OC)cc(OC)c1 , system: Tyrosine-protein kinase Lck (Homo sapiens, UniProt P06239). Its Activity is 77.3 to 82%

---
Sample COc1cc(OC)cc(C(=O)Nc2cnc(Nc3ccc(N4CCOCC4)cc3)nc2Oc2ccc(C)cc2OC)c1 , system: Tyrosine-protein kinase Lck (Homo sapiens, UniProt P06239). Its Activity is 46.5 to 47%
